# target system: T1, human Trop2 on cells (human, UniProt P09758 27-323)
# T1 construct: whole, on cells; also called hTrop2; 293T-human Trop2 cells
# T1 sequence (looked up): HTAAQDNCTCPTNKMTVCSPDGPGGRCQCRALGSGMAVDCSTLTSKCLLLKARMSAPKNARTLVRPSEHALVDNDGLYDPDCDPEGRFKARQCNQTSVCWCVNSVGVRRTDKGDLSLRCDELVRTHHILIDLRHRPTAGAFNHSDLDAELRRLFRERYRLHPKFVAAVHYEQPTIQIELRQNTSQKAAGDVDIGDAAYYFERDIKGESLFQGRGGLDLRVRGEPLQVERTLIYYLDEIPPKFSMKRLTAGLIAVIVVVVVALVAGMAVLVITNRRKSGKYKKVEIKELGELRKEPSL
# test summary: flow cytometry on 293T-human Trop2 cells
metric name: Maximum (MFI)

Before answering, review these 2 worked examples.
binder	Maximum (MFI)
PR001130 (antibody, human IgG1, kappa, V domains shown, fully human IgG1/kappa; also called antibody No. (2)) VH: QVQLQESGPGLVKPSGTLSLTCAVSGDSISSHNWWSWVRQPPGKGLEWIGEIYHSGITSYNPSLKSRVTISVDKSKNQFSLKLNSVTAADTAMYYCARGSGVISYFDYWGQGTLVTVSS VL: DIQMTQSPSTLSASVGDRVTITCRASQSIGNWLAWYQQKPGKAPKLLIYKASSLESGVPSRFSGSGSGTEFTLTISSLQPDDFATYYCQQYDSYSPITFGQGTRLEIKR	6820 MFI
PR001133 (antibody, human IgG1, kappa, V domains shown, fully human IgG1/kappa; also called antibody No. (5)) VH: QVNLVESGGGVVQPGRSLKLSCAASGFTFSSYGMHWVRQAPGKGLEWVALIWSDGTNRYYTESVKGRFTISRDNSKNTLSLQMKSLRAEDTAVYYCAKDGWGTYGEYFQHWGQGTLVTVSS VL: DIQMTQSPSSLSASVGDRVTITCRASQNINSYLHWYQQKPGKAPKLLIYAASSLQSGVPSRFSGSGSGTDFTLTISSLQPEDFAIYYCQQSYSIPPITFGQGTRLEIKR	7200 MFI

Consider the record given below.
Lab note: measured Maximum (MFI) of PR001159 (antibody, human IgG1, kappa, V domains shown, fully human IgG1/kappa; also called antibody No. (21)) VH: QVQLVESGGGVVQPGRSLRLSCEASGFTFSHYGMHWVRQAPGKGLEWVAVIWYDGIKTNYVESVKGRFTISRDNSKNTLNLQMNRLRAEDTAVYYCARDGGFGESNYYGLDVWGQGTTVTVSS VL: DIQLTQSPSFLSASVGDRVTITCRASQGISSYLGWYQQKPGKAPKLLIYIASTLQSGVPSRFSGSGSGTEFTLTISSLQPEDFATYYCQQLNSYPYTFGQGTKLEIKR was 6790 MFI
